target: CXCL8_HUMAN (human, UniProt P10145 28-99); assay: BLI
Sequence (P10145 28-99): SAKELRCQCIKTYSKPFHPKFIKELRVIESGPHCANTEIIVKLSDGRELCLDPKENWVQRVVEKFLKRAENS
observation type: Kd (nM)
Reply with just the number (in nM).

I would be grateful if you could share the reported Kd for P1156_IXORI (other) ADDDNELFTVQYCGMNCTKDEGGTWTGCTGKKEGCKCYHESGKNYGLCLSTEYTDFSQYGNPSDSEIEAAKPKRSDTLSH .
4.6
